target: GSPT1 (Homo sapiens, UniProt P15170+Q96SW2); assay: ePL degradation assay, DF15/GSPT1 ePL OE cells; settings: degradation, 20 hr incubation, top conc 10 uM, N ≥ 3
Sequence (P15170 1-637 isoform P15170-3): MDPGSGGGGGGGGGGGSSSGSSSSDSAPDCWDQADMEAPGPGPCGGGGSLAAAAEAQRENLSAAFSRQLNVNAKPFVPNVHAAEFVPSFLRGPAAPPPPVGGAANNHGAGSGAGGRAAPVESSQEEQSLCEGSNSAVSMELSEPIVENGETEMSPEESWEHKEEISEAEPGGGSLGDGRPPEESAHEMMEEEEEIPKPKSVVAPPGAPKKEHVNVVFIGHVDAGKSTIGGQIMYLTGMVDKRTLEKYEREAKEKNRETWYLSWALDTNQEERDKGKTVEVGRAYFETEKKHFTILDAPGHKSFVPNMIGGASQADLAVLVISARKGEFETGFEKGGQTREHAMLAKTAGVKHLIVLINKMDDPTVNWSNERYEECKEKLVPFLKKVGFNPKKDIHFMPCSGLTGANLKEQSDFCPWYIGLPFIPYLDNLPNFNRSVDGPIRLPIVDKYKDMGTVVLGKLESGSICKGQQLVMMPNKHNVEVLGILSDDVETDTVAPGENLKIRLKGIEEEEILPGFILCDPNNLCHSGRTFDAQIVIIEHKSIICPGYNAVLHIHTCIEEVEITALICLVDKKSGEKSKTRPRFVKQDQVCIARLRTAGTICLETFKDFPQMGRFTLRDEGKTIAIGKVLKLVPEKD
Sequence (Q96SW2 whole entry): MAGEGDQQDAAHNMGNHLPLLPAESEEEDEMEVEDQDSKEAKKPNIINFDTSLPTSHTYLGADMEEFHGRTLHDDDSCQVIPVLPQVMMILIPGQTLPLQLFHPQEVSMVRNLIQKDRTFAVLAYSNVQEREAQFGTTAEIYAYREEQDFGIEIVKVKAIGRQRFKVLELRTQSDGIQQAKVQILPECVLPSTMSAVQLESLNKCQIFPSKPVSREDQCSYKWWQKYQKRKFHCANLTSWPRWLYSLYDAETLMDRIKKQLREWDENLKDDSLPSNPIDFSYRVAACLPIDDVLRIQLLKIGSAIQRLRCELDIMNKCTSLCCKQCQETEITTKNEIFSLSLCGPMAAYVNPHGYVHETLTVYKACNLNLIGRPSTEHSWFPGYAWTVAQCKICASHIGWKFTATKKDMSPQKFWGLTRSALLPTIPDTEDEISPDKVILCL
Sequence (Q16531 whole entry partner): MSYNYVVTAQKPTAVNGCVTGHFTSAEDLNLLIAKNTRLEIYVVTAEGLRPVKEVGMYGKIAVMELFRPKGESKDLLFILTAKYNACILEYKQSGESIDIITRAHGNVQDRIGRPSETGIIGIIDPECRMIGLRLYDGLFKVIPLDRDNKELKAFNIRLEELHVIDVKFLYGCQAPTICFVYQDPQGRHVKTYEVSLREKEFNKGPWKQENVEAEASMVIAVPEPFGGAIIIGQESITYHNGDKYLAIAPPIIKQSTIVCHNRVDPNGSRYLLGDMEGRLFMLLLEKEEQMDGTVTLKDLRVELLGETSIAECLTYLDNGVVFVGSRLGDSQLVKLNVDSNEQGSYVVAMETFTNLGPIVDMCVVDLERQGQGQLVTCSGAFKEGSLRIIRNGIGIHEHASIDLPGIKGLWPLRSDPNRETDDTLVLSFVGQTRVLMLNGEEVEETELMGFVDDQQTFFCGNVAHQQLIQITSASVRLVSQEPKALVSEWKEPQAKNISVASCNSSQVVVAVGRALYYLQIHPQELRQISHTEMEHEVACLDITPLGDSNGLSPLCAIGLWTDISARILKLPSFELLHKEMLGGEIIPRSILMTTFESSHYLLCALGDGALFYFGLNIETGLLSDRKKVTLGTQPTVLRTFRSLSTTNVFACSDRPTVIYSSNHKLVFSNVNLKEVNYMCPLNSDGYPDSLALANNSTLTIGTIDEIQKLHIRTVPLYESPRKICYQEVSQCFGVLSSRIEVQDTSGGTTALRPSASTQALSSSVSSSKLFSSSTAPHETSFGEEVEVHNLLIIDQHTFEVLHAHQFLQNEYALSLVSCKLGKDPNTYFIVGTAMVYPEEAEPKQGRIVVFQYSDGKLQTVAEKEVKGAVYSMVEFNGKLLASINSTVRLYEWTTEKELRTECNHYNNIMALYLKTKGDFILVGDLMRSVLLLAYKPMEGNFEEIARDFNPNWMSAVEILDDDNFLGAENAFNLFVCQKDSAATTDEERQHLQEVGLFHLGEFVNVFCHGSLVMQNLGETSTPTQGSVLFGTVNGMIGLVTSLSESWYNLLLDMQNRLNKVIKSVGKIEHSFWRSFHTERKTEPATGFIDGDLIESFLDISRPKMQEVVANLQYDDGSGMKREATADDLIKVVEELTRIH
pEC50: −log10 of the molar value.
Below, each of the compounds is paired with its reported pEC50 value.
Metric name: pEC50

• O=C1CCC(N2Cc3cc([C@H]4C[C@@]4(C(=O)OCC(Cl)(Cl)Cl)c4ccc(Br)cc4)ccc3C2=O)C(=O)N1 (stereo partly shown) [Compound 15b] = < 5.00
• O=C1CCC(N2Cc3cccc(C4=C[C@@]4(C(=O)OCC(Cl)(Cl)Cl)c4ccc(Br)cc4)c3C2=O)C(=O)N1 (stereo partly shown) [Compound 24b] = < 5.00
• O=C1CCC(N2Cc3c(cccc3C3=C[C@]3(C(=O)OCC(Cl)(Cl)Cl)c3ccc(Br)cc3)C2=O)C(=O)N1 (stereo partly shown) [Compound 19a] = 6.77
• O=C1CCC(N2C(=O)c3cccc(C4=C[C@@]4(C(=O)OCC(Cl)(Cl)Cl)c4ccc(Br)cc4)c3C2=O)C(=O)N1 (stereo partly shown) [Compound 20b] = 5.29
• O=C1CCC(N2Cc3cc(C4=C[C@]4(C(=O)OCC(Cl)(Cl)Cl)c4ccc(Br)cc4)ccc3C2=O)C(=O)N1 (stereo partly shown) [Compound 21a] = < 5.00
• O=C1CCC(N2C(=O)c3ccc([C@@H]4C[C@]4(C(=O)OCC(Cl)(Cl)Cl)c4ccc(Br)cc4)cc3C2=O)C(=O)N1 (stereo partly shown) [Compound 16a] = < 5.00
• O=C1CCC(N2Cc3ccc(C4=C[C@@]4(C(=O)OCC(Cl)(Cl)Cl)c4ccc(Br)cc4)cc3C2=O)C(=O)N1 (stereo partly shown) [Compound 23b] = < 5.00
• O=C1CCC(N2Cc3cccc([C@H]4C[C@@]4(C(=O)OCC(Cl)(Cl)Cl)c4ccc(Br)cc4)c3C2=O)C(=O)N1 (stereo partly shown) [Compound 18b] = < 5.00
• O=C1CCC(N2Cc3cc([C@@H]4C[C@]4(C(=O)OCC(Cl)(Cl)Cl)c4ccc(Br)cc4)ccc3C2=O)C(=O)N1 (stereo partly shown) [Compound 15a] = < 5.00
• O=C1CCC(N2C(=O)c3cccc([C@@H]4C[C@]4(C(=O)OCC(Cl)(Cl)Cl)c4ccc(Br)cc4)c3C2=O)C(=O)N1 (stereo partly shown) [Compound 14a] = < 5.00
• O=C1CCC(N2C(=O)c3ccc(C4=C[C@]4(C(=O)OCC(Cl)(Cl)Cl)c4ccc(Br)cc4)cc3C2=O)C(=O)N1 (stereo partly shown) [Compound 22a] = 5.96
• O=C1CCC(N2C(=O)c3cccc([C@H]4C[C@@]4(C(=O)OCC(Cl)(Cl)Cl)c4ccc(Br)cc4)c3C2=O)C(=O)N1 (stereo partly shown) [Compound 14b] = < 5.00
• O=C1CCC(N2Cc3ccc(C4=C[C@]4(C(=O)OCC(Cl)(Cl)Cl)c4ccc(Br)cc4)cc3C2=O)C(=O)N1 (stereo partly shown) [Compound 23a] = < 5.00
• O=C1CCC(N2Cc3ccc([C@H]4C[C@@]4(C(=O)OCC(Cl)(Cl)Cl)c4ccc(Br)cc4)cc3C2=O)C(=O)N1 (stereo partly shown) [Compound 17b] = < 5.00
• O=C1CCC(N2Cc3cc(C4=C[C@@]4(C(=O)OCC(Cl)(Cl)Cl)c4ccc(Br)cc4)ccc3C2=O)C(=O)N1 (stereo partly shown) [Compound 21b] = 5.48
• O=C1CCC(N2C(=O)c3cccc(C4=C[C@]4(C(=O)OCC(Cl)(Cl)Cl)c4ccc(Br)cc4)c3C2=O)C(=O)N1 (stereo partly shown) [Compound 20a] = 5.37
• O=C1CCC(N2Cc3c(cccc3C3=C[C@@]3(C(=O)OCC(Cl)(Cl)Cl)c3ccc(Br)cc3)C2=O)C(=O)N1 (stereo partly shown) [Compound 19b] = 6.26
• O=C1CCC(N2Cc3c(cccc3[C@H]3C[C@@]3(C(=O)OCC(Cl)(Cl)Cl)c3ccc(Br)cc3)C2=O)C(=O)N1 (stereo partly shown) [Compound 13b] = < 5.00
• O=C1CCC(N2Cc3ccc([C@@H]4C[C@]4(C(=O)OCC(Cl)(Cl)Cl)c4ccc(Br)cc4)cc3C2=O)C(=O)N1 (stereo partly shown) [Compound 17a] = < 5.00
• O=C1CCC(N2Cc3c(cccc3[C@@H]3C[C@]3(C(=O)OCC(Cl)(Cl)Cl)c3ccc(Br)cc3)C2=O)C(=O)N1 (stereo partly shown) [Compound 13a] = < 5.00
• O=C1CCC(N2Cc3cccc(C4=C[C@]4(C(=O)OCC(Cl)(Cl)Cl)c4ccc(Br)cc4)c3C2=O)C(=O)N1 (stereo partly shown) [Compound 24a] = < 5.00
• O=C1CCC(N2Cc3cccc([C@@H]4C[C@]4(C(=O)OCC(Cl)(Cl)Cl)c4ccc(Br)cc4)c3C2=O)C(=O)N1 (stereo partly shown) [Compound 18a] = < 5.00
